Data provenance is patent US20180362628A1.

target system: T1, full CSP protein (analyte of Example 12) (Plasmodium falciparum (isolate 3D7), UniProt Q7K740 19-374)
T1 construct: not shown: C-terminal tags
T1 sequence (Q7K740 19-374 limits assumed): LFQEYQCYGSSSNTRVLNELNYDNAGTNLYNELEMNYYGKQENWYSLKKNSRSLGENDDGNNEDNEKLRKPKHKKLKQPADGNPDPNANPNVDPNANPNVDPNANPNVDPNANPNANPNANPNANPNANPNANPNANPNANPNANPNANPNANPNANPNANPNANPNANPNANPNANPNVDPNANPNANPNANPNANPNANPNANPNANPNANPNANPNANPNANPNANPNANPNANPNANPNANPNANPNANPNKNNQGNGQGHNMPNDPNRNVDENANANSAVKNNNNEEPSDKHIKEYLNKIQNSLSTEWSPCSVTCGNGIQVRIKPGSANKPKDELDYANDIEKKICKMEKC
procedure summary: SPR, IgG1 from supernatant on anti-human IgG surface, CSP as analyte, 25 C, 1:1 fit
Below, each entry is listed with its recorded kon.
Please give a number only; it is taken to be in M⁻¹ s⁻¹.

1) CL-141783 (antibody, V domains shown, human IgG1, HEK (Expi293F) culture supernatant) VH: QVQLVQSGAEVKKPGASVKLSCKASGYTFTNYAMHWVRQAPGQSLEWMGWINAGNGYTKYSQKFQGRVTITRDTSANTAYMDLSSLRSEDTAVYYCARDQYYDILKGYYNVDYYYGMDVWGQGTTVAVSS VL: QSALTQPASVSGSPGQSITISCTGTSSDVGSYNHVSWYQQHPGKAPKLMIYDVSKRPSGVSDRFSGSKSGNTASLTISGLQAEDEADYYCCSYVGSSTWVFGGGTKLTVL
128000
2) CL-141785 (antibody, V domains shown, human IgG1, HEK (Expi293F) culture supernatant) VH: QVQLVQSGAEVKKPGASVRVSCKASGFTFISYAMHWVRQAPGQGLEWMGWINAGDGHTKYSQKFQDRVAITRDTSATTVYMDLSSLRSEDTAVYYCSRDGFCTTTTCSDHYGMDVWGQGTTVTVSS VL: QSALTQPASVSGSPGQSITISCTGTSSDVGSYNYVSWYQQHPGKAPKFMIYDVSKRPSGVSDRFSGSKSGNTASLTISGLQAEDEADYYCCSYAGSSTWVFGGGTKLTVL
573000

Shift focus to the following entry.
So what's the measured kon for this one? CL-141802 (antibody, V domains shown, human IgG1, HEK (Expi293F) culture supernatant) VH: QVQLVQSGTEVKKPGASVKVSCKASGFTFSSYAMHWVRQAPGQRLEWMGWINAGNGNTKYSQKFQGRVTITRDTSASTAYMELSSLRSEDTAVYYCARDGYCSSTSCYGYYGMDVWGQGTTVTVSS VL: QSALTQPASVSGSPGQSITISCTGTSSDVGAYNYVSWYQQHPGKAPKLMISDVSKRPSGVSNRFSGSKSDNTASLTVSGLQAEDEAVYYCCSYAGSSTWVFGGGTKLTVL
313000
